Please provide measured combination Emax for the entries that follow.
test system: SCC-3 (B-Cell Non-Hodgkin's Lymphoma); test: combination Emax (second highest fraction inhibited in the dose matrix, 72 h); higher = more inhibition; extreme values may be limits of the assay
Give bare numbers.

Consider the worked cases shown below.
{"columns": ["COMPOUND", "ASSAY_RESULT"],
 "data": [
  ["Cn1cnc2c(F)c(Nc3ccc(Br)cc3Cl)c(C(=O)NOCCO)cc21 [Selumetinib] + CCN(CCO)CCCOc1ccc2c(Nc3cc(CC(=O)Nc4cccc(F)c4)[nH]n3)ncnc2c1 [AZD2811] (first compound max 10 µM, 7x7, partner max 1 µM)", 0.43],
  ["Cc1cc2ncnn2cc1Nc1ncc2c(n1)n(C1CCOCC1)c(=O)n2C [AZD7648] + C=CCn1c(=O)c2cnc(Nc3ccc(N4CCN(C)CC4)cc3)nc2n1-c1cccc(C(C)(C)O)n1 [AZD1775] (first compound max 10 µM, partner max 1 µM)", 0.815],
  ["Cn1cnc2c(F)c(Nc3ccc(Br)cc3Cl)c(C(=O)NOCCO)cc21 [Selumetinib] + C[C@@H]1COCCN1C2=NC(=NC(=C2)C3(CC3)[S@](=N)(=O)C)C4=C5C=CNC5=NC=C4 [AZD6738] (first compound max 10 µM, 7x7, partner max 10 µM)", 0.933]
]}

Let's switch to this compound now.
Ask: Using the record for Cc1c2c(nn1C)CSCc1cc(n(C)n1)CSc1cc(c3ccccc3c1)OCCCc1c(C(=O)O)n(C)c3c-2c(Cl)ccc13 [AZD5991] + C[C@@H](Nc1cc(F)cc(F)c1)c1cc(C(=O)N(C)C)cc2c(=O)cc(N3CCOCC3)oc12 [AZD8186] (first compound max 1 µM, 7x7, partner max 3 µM) , report its combination Emax.
Reply: 0.409

====

Please provide measured Bliss excess for the entries that follow.
system: OCUM-1 (Gastric Carcinoma); test: Bliss excess, mean over the matrix (fraction); higher = more synergy
Answers are plain numbers.

Consider the worked cases shown below.
{"columns": ["MOLECULE", "ASSAY_RESULT"],
 "data": [
  ["Cn1cnc2c(F)c(Nc3ccc(Br)cc3Cl)c(C(=O)NOCCO)cc21 [Selumetinib] + C=CCn1c(=O)c2cnc(Nc3ccc(N4CCN(C)CC4)cc3)nc2n1-c1cccc(C(C)(C)O)n1 [AZD1775] (first compound max 10 µM, partner max 1 µM)", -0.0137],
  ["Cc1c2c(nn1C)CSCc1cc(n(C)n1)CSc1cc(c3ccccc3c1)OCCCc1c(C(=O)O)n(C)c3c-2c(Cl)ccc13 [AZD5991] + CN(C)CCCOc1ccc(-c2ccc3ncc4c(c3c2)n(C2CCOCC2)c(=O)n4C)cn1 [AZD0156] (first compound max 1 µM, 7x7, partner max 1 µM)", -0.016]
]}

Let's switch to this molecule now.
Ask: Form field - read-out: Bliss excess; system: OCUM-1 (Gastric Carcinoma); submitted item: CN(CCO)CC[C@H](CSc1ccccc1)Nc1ccc(S(=O)(=O)NC(=O)c2ccc(N3CCC([C@@H](O)c4ccccc4-c4ccc(Cl)cc4)CC3)cc2)cc1S(=O)(=O)C(F)(F)F [AZD4320] + CCN(CCO)CCCOc1ccc2c(Nc3cc(CC(=O)Nc4cccc(F)c4)[nH]n3)ncnc2c1 [AZD2811] (first compound max 1 µM, 7x7, partner max 1 µM)
Reply: 0.0648

====

tested on: HSC-2 (Oral Cavity Carcinoma); assay: Bliss excess, mean over the matrix (fraction); higher = more synergy
METRIC_NAME: Bliss excess
Numbers only.

{"columns": ["MOLECULE", "Bliss excess"],
 "data": [
  ["COc1cc2ncnc(Nc3ccc(F)c(Cl)c3)c2cc1OCCCN1CCOCC1 [Gefitinib] + CC(C)n1c(=O)n(C)c2cnc3cc(F)c(-c4ccc(OCCCN5CCCCC5)nc4)cc3c21 [AZD1390] (first compound max 10 µM, 7x7, partner max 0.3 µM)", -0.0442],
  ["Cn1cnc2c(F)c(Nc3ccc(Br)cc3Cl)c(C(=O)NOCCO)cc21 [Selumetinib] + C=CCn1c(=O)c2cnc(Nc3ccc(N4CCN(C)CC4)cc3)nc2n1-c1cccc(C(C)(C)O)n1 [AZD1775] (first compound max 10 µM, partner max 1 µM)", -0.0366],
  ["COc1nnc2ccc(N3CCC(c4ccc(OCCN5CCN(C)C(=O)[C@H]5C)cc4)CC3)nn12 [AZD5153] + C[C@@H]1COCCN1C2=NC(=NC(=C2)C3(CC3)[S@](=N)(=O)C)C4=C5C=CNC5=NC=C4 [AZD6738] (first compound max 1 µM, 7x7, partner max 10 µM)", -0.0039]
]}

Provide the reported Bliss excess of each entry below, same order.
1. CC(=O)c1c(C)c2cnc(Nc3ccc(N4CCNCC4)cn3)nc2n(C2CCCC2)c1=O [Palbociclib] + Cn1cnc2c(F)c(Nc3ccc(Br)cc3Cl)c(C(=O)NOCCO)cc21 [Selumetinib] (first compound max 10 µM, 7x7, partner max 10 µM)
2. COc1nnc2ccc(N3CCC(c4ccc(OCCN5CCN(C)C(=O)[C@H]5C)cc4)CC3)nn12 [AZD5153] + CC1(C)CCC(CN2CCN(c3ccc(C(=O)NS(=O)(=O)c4ccc(NCC5CCOCC5)c([N+](=O)[O-])c4)c(Oc4cnc5[nH]ccc5c4)c3)CC2)=C(c2ccc(Cl)cc2)C1 [Venetoclax] (first compound max 1 µM, 7x7, partner max 1 µM)
3. NC1(C(=O)N[C@@H](CCO)c2ccc(Cl)cc2)CCN(c2ncnc3[nH]ccc23)CC1 [Capivasertib] + CC(C)n1c(=O)n(C)c2cnc3cc(F)c(-c4ccc(OCCCN5CCCCC5)nc4)cc3c21 [AZD1390] (first compound max 10 µM, 7x7, partner max 0.3 µM)
4. COc1cccc(OCCCN)c1-c1cc(Nc2cnc(C#N)cn2)n[nH]1 [Prexasertib] + CCc1c2c(nc3ccc(O)cc13)-c1cc3c(c(=O)n1C2)COC(=O)[C@]3(O)CC [SN-38] (first compound max 1 µM, 7x7, partner max 0.3 µM)

Reply:
[0.0254, -0.0196, -0.0117, -0.0507]

Provide the reported Bliss excess of each entry below, same order.
1. C[C@@H](c1ccc2nccn2c1)n1nnc2ncc(-c3cnn(C)c3)nc21 [Savolitinib] + Cc1c2c(nn1C)CSCc1cc(n(C)n1)CSc1cc(c3ccccc3c1)OCCCc1c(C(=O)O)n(C)c3c-2c(Cl)ccc13 [AZD5991] (first compound max 1 µM, 7x7, partner max 1 µM)
2. CC1(C)CCC(CN2CCN(c3ccc(C(=O)NS(=O)(=O)c4ccc(NCC5CCOCC5)c([N+](=O)[O-])c4)c(Oc4cnc5[nH]ccc5c4)c3)CC2)=C(c2ccc(Cl)cc2)C1 [Venetoclax] + COc1cc(Nc2ncc3c(n2)-c2ccc(Cl)cc2C(c2c(F)cccc2OC)=NC3)ccc1C(=O)O [Alisertib] (first compound max 1 µM, 7x7, partner max 10 µM)

Reply:
[-0.0493, 0.0857]

====

Please provide measured combination Emax for the entries that follow.
system: HuP-T3 (Pancreatic Carcinoma); assay: combination Emax (second highest fraction inhibited in the dose matrix, 72 h); higher = more inhibition; extreme values may be limits of the assay
One number for each entry.

Consider the worked cases shown below.
{"columns": ["MOLECULE", "combination Emax"],
 "data": [
  ["NC1(C(=O)N[C@@H](CCO)c2ccc(Cl)cc2)CCN(c2ncnc3[nH]ccc23)CC1 [Capivasertib] + Cn1cnc2c(F)c(Nc3ccc(Br)cc3Cl)c(C(=O)NOCCO)cc21 [Selumetinib] (first compound max 10 µM, 7x7, partner max 10 µM)", 0.464],
  ["CC1(C)CCC(CN2CCN(c3ccc(C(=O)NS(=O)(=O)c4ccc(NCC5CCOCC5)c([N+](=O)[O-])c4)c(Oc4cnc5[nH]ccc5c4)c3)CC2)=C(c2ccc(Cl)cc2)C1 [Venetoclax] + C[C@@H](Nc1cc(F)cc(F)c1)c1cc(C(=O)N(C)C)cc2c(=O)cc(N3CCOCC3)oc12 [AZD8186] (first compound max 1 µM, 7x7, partner max 3 µM)", 0.119],
  ["COc1nnc2ccc(N3CCC(c4ccc(OCCN5CCN(C)C(=O)[C@H]5C)cc4)CC3)nn12 [AZD5153] + C[C@@H]1COCCN1C2=NC(=NC(=C2)C3(CC3)[S@](=N)(=O)C)C4=C5C=CNC5=NC=C4 [AZD6738] (first compound max 1 µM, 7x7, partner max 10 µM)", 0.705]
]}

Let's switch to this molecule now.
Ask: Form field - read-out: combination Emax; system: HuP-T3 (Pancreatic Carcinoma); submitted item: COc1nnc2ccc(N3CCC(c4ccc(OCCN5CCN(C)C(=O)[C@H]5C)cc4)CC3)nn12 [AZD5153] + C=CCn1c(=O)c2cnc(Nc3ccc(N4CCN(C)CC4)cc3)nc2n1-c1cccc(C(C)(C)O)n1 [AZD1775] (first compound max 1 µM, partner max 1 µM)
Reply: 0.584

====

tested on: LOU-NH91 (Squamous Cell Lung Carcinoma); assay: combination Emax (second highest fraction inhibited in the dose matrix, 72 h); higher = more inhibition; extreme values may be limits of the assay
METRIC_NAME: combination Emax
Answers are plain numbers.

Provide the reported combination Emax of each entry below, same order.
1. COc1nnc2ccc(N3CCC(c4ccc(OCCN5CCN(C)C(=O)[C@H]5C)cc4)CC3)nn12 [AZD5153] + Cn1cnc2c(F)c(Nc3ccc(Br)cc3Cl)c(C(=O)NOCCO)cc21 [Selumetinib] (first compound max 1 µM, 7x7, partner max 10 µM)
2. Cc1c2c(nn1C)CSCc1cc(n(C)n1)CSc1cc(c3ccccc3c1)OCCCc1c(C(=O)O)n(C)c3c-2c(Cl)ccc13 [AZD5991] + CN(C)CCCOc1ccc(-c2ccc3ncc4c(c3c2)n(C2CCOCC2)c(=O)n4C)cn1 [AZD0156] (first compound max 1 µM, 7x7, partner max 1 µM)

Reply:
1: 0.63; 2: 0.47
